Source of measurements: the supplement of paper PMC7877785

- Method notes: self-splicing fitness, log relative to wild type (ln ratio); higher = more splicing; Tetrahymena group I intron in knt gene, E. coli kanamycin selection, DiMSum; sequences stand for … in CUCUCU…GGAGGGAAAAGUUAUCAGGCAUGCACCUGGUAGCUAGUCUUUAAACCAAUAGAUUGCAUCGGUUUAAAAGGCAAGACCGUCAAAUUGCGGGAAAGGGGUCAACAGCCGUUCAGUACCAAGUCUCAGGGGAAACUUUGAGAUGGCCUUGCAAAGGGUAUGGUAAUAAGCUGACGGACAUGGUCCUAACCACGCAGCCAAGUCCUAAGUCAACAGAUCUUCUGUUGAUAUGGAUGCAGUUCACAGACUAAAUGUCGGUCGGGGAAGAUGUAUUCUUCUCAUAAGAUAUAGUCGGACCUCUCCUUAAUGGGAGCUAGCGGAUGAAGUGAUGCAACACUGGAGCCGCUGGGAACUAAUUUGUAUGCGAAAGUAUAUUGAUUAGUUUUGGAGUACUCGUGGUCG;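 note: selection with 25 µg/mL kanamycin versus none on LB agar overnight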
- Recorded conditions: 30 °C
Each item that follows carries a reported self-splicing fitness (ln).
Reported metric: self-splicing fitness (ln)

- AGAAAGCAAUAUUACGGGGC: -4.36
- GUUAAGCAAUAUUACGUGGA: -2.84
- AUAAAGCAAUAUUACGAUGU: -0.252
- GAGAAGCAAUAUUACGCGGU: -2.38
- UAUGAGCAAUAUUACGCGUU: -4.08
- AGUAAGCAAUAUUACGAAAG: -4.26
- GCCUAGCAAUAUUACGGCCC: -3.4
- GAGGAGCAAUAUUACGUACG: -2.21
- CCACAGCAAUAUUACGGCUC: -3.39
- UCCAAGCAAUAUUACGUUGU: -3.79
- AAUAAGCAAUAUUACGGGCU: -1.54
- UUUUAGCAAUAUUACGACAG: -0.158
- ACACAGCAAUAUUACGCUUA: -1.75
- UAUCAGCAAUAUUACGAAGA: -0.93
- CGCUAGCAAUAUUACGUGUC: -2.34
- CUACAGCAAUAUUACGUCGU: -3.3
- UGUAAGCAAUAUUACGGCAC: -1.49
- AUCUAGCAAUAUUACGGAGA: -2.16
- CGUUAGCAAUAUUACGUUGC: -3.94
- AGUUAGCAAUAUUACGACAC: -0.65
- AAUCAGCAAUAUUACGGUUG: -1.91
- CCCUAGCAAUAUUACGUCAA: -3.16
- CCUAAGCAAUAUUACGGGGA: -2.84
- AGAUAGCAAUAUUACGUCAG: -2.66
- CAUCAGCAAUAUUACGCAGC: -3.35
- ACCGAGCAAUAUUACGGAAC: -3.03
- CUGUAGCAAUAUUACGACGA: -1.4
- ACCGAGCAAUAUUACGUAGC: -3.46
- GUUCAGCAAUAUUACGACCU: 0.353
- ACACAGCAAUAUUACGGAUG: -1.54
- GUGAAGCAAUAUUACGGGUU: -1.67
- CGCAAGCAAUAUUACGUGCA: -0.273
- AUUCAGCAAUAUUACGAGAA: -1.51
- ACUCAGCAAUAUUACGUAAU: -0.934

* * *

Each item that follows carries a reported self-splicing fitness (ln).
- Method notes: self-splicing fitness, log relative to wild type (ln ratio); higher = more splicing; Tetrahymena group I intron in knt gene, E. coli kanamycin selection, DiMSum; sequences stand for … in CUCUCU…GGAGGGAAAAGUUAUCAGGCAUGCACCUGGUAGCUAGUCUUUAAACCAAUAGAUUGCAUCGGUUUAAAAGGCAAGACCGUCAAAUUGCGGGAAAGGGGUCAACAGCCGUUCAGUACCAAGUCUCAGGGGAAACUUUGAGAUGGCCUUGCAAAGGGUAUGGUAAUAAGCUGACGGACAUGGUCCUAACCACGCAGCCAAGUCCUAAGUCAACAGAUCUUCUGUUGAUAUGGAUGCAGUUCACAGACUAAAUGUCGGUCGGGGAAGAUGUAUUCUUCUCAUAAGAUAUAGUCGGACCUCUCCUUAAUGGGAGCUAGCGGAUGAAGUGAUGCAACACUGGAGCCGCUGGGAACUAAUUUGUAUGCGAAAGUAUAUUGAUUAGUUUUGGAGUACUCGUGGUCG
- Recorded conditions: 30 °C
Reported metric: self-splicing fitness (ln)

- GGCGAGCAAUAUUACGUCGA: -2.43
- ACCAAGCAAUAUUACGCCUG: -2.05
- GGCCAGCAAUAUUACGCUUU: -0.464
- CAUCAGCAAUAUUACGACUA: -1.26
- UACGAGCAAUAUUACGUUAA: -3.08
- UGCUAGCAAUAUUACGUCUU: -1.85
- CACAAGCAAUAUUACGUUUC: -3.53
- ACCUAGCAAUAUUACGUCCA: -1.53
- UGAAAGCAAUAUUACGUCAC: -3.83
- GGUGAGCAAUAUUACGGGAA: -1.89
- AGUGAGCAAUAUUACGUUGC: -3.28
- UUGUAGCAAUAUUACGCAAC: -2.57
- AAGGAGCAAUAUUACGCUAG: -2.17
- CUGCAGCAAUAUUACGAGUC: -3.68
- CACGAGCAAUAUUACGCGAU: -3.23
- UCAGAGCAAUAUUACGCUGA: -3.04
- GAUGAGCAAUAUUACGAAAC: -3.2
- CCGCAGCAAUAUUACGGGAC: -4.12
- UGAGAGCAAUAUUACGUGAA: -4.19
- GUUAAGCAAUAUUACGCAUU: -2.16
- UUACAGCAAUAUUACGCUAC: -3.71
- ACCUAGCAAUAUUACGUUAG: -3.59
- AUUAAGCAAUAUUACGGCUA: -0.106
- UUCAAGCAAUAUUACGCUAA: -1.35
- AUAAAGCAAUAUUACGGGCG: -0.028
- CGGGAGCAAUAUUACGAGGA: -4.2
- CAAAAGCAAUAUUACGCGCU: -3.18
- UUUCAGCAAUAUUACGUCCA: -0.967
- AGCGAGCAAUAUUACGCGCG: -4.04
- GUUAAGCAAUAUUACGAGCA: -1.9
- GUGAAGCAAUAUUACGAUAU: -0.274
- GUCCAGCAAUAUUACGCGGG: -4.23
- UUCUAGCAAUAUUACGGCGU: -1.72
- CCUCAGCAAUAUUACGGUGA: -3.68
- GACGAGCAAUAUUACGACGC: -0.758
- UACUAGCAAUAUUACGUCGU: -2.15
- GGACAGCAAUAUUACGGGCA: -0.731
- UGUCAGCAAUAUUACGAGUU: -1.33
- CUGAAGCAAUAUUACGUUGU: -4.42
- CGACAGCAAUAUUACGAUUG: -0.746
- ACCCAGCAAUAUUACGAAAG: -2.85
- ACGAAGCAAUAUUACGUGAG: -0.888
- UUGGAGCAAUAUUACGCACA: -0.871
- CACCAGCAAUAUUACGCGCC: -2.68
- UAAUAGCAAUAUUACGAAUA: -2.51
- AAAUAGCAAUAUUACGCCGU: -1.37
- AAUAAGCAAUAUUACGCAGA: -3.73
- CAUAAGCAAUAUUACGGGCG: -0.054
- GAAAAGCAAUAUUACGUGCA: -0.843
- GCCGAGCAAUAUUACGUACC: -2.15
- UAGUAGCAAUAUUACGCCUG: -0.198
- UAACAGCAAUAUUACGUGAU: -2.4
- CUGUAGCAAUAUUACGUGAG: -1.31
- UAUAAGCAAUAUUACGCAGA: -0.745
- AUAAAGCAAUAUUACGAAGA: -2.47
- UAAAAGCAAUAUUACGCGAU: -3.3
- GUUAAGCAAUAUUACGUAUC: -1.79
- UCCAAGCAAUAUUACGACUG: -3.78
- GUUUAGCAAUAUUACGUAAA: -2.64
- AACAAGCAAUAUUACGUAGG: -2.76
- AUGUAGCAAUAUUACGUGCG: -1.8
- GGACAGCAAUAUUACGGAGG: -3.52
- CUAAAGCAAUAUUACGUAAC: -2.86
- AGAUAGCAAUAUUACGGAGG: -4.37
- AUCCAGCAAUAUUACGUAUU: -1.84
- UUGAAGCAAUAUUACGCAAU: -2.4
- UUAUAGCAAUAUUACGCGAA: -1.97

* * *

- Method notes: self-splicing fitness, log relative to wild type (ln ratio); higher = more splicing; Tetrahymena group I intron in knt gene, E. coli kanamycin selection, DiMSum; sequences stand for … in CUCUCU…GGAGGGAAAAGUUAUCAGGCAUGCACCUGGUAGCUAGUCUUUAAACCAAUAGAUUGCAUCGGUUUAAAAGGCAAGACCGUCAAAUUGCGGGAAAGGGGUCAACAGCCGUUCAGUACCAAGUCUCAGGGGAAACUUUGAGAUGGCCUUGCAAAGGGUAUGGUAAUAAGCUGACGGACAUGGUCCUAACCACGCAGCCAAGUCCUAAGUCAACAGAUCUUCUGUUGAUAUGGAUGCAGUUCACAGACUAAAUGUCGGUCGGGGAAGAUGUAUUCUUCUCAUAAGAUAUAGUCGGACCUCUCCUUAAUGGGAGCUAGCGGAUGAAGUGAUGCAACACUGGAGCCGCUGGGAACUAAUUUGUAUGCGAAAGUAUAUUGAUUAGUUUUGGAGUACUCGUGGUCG
- Recorded conditions: 30 °C
Reported metric: self-splicing fitness (ln)

• CGAAAGCAAUAUUACGUAUA = -3.52
• AAACAGCAAUAUUACGGUGA = -0.283
• GCGAAGCAAUAUUACGCUGU = -1.5
• UCGAAGCAAUAUUACGGUAG = -1.4
• UUGAAGCAAUAUUACGUUCU = 0.25
• AUAAAGCAAUAUUACGUCUA = 0.308
• ACUCAGCAAUAUUACGGUUU = -0.62
• CUCCAGCAAUAUUACGUUCC = -4.23
• AAAGAGCAAUAUUACGCAUU = -3.61
• ACGUAGCAAUAUUACGCCGC = -3.7
• GGCUAGCAAUAUUACGCCGU = -1.49
• AGCAAGCAAUAUUACGUGCU = -2.38
• CUAUAGCAAUAUUACGAAUG = -0.481
• UGCUAGCAAUAUUACGCGGA = -2.16
• UCGAAGCAAUAUUACGCUGU = -2.33
• UAAGAGCAAUAUUACGCCAC = -2.07
